# Assay type: in vivo, human
# REPORTED CONDITIONS: both, human, plasma, oral, 100 mg
ASSAY METRIC: half-life (h)
I only need the number, in h, no unit after it.

Can you look up the measured half-life of `COc1ccc(-n2nc(C(N)=O)c3c2C(=O)N(c2ccc(N4CCCCC4=O)cc2)CC3)cc1` for me? 6.8

====

# Type: in vivo, human
# REPORTED CONDITIONS: both, human, plasma, po, 10 mg
ASSAY METRIC: half-life (h)
Report only the number, with the unit h understood.

Which half-life reading was recorded for the molecule `COc1ccc(-n2nc(C(N)=O)c3c2C(=O)N(c2ccc(N4CCCCC4=O)cc2)CC3)cc1` ? 12.1

====

# Assay type: in vivo, human
# REPORTED CONDITIONS: both, human, plasma, oral, 100 mg
ASSAY METRIC: Vd/F
The number alone won't do; follow it with the unit.

Find the recorded Vd/F belonging to COc1ccc(-n2nc(C(N)=O)c3c2C(=O)N(c2ccc(N4CCCCC4=O)cc2)CC3)cc1 [Apixaban] and report it. 45 L

====

# Assay type: in vivo, human
# REPORTED CONDITIONS: both, human, plasma, po, 10 mg
ASSAY METRIC: Tmax
Number first, unit second.

For the compound COc1ccc(-n2nc(C(N)=O)c3c2C(=O)N(c2ccc(N4CCCCC4=O)cc2)CC3)cc1 [Apixaban] , what Tmax is on record? 2.5 h
